System: TK-10
Method notes: NCI tumour cell line growth inhibition, 48 h
Activity calls are given as the source filed them. Rule as the data show it: active = GI50 up to about 1.1 µM and inactive = higher.
// reported GI50 for each item listed

Examples with answers:
{"Compound": "COC(=O)c1c2c(cc3c1CC1(Cc4ccccc4C1)C3)CCC2", "Measured value": "61.8 µM (inactive)"}
{"Compound": "CCOc1ccc(/C=N\\N2C(=O)c3ccccc3C2=O)cc1", "Measured value": "> 100 µM (inactive)"}

[Q] I am curious: what GI50 value has been reported for `NC1=C(Cl)C(=O)c2c(O)ccc(O)c2C1=O` ?
[A] 15.2 µM (inactive)

[Q] Look at this compound and give its reported GI50. `C=CCSC(C)=O`
[A] > 100 µM (inactive)
